target or test system: human thrombocytes
experimental details: Competitive binding of ^3 H-BIBU 52/test substance to human thrombocytes
test conditions: human thrombocytes in plasma; ^3 H-BIBU 52 5 nM; ambient temperature, 20 minutes
Method: 1. Competitive binding of ^3 H-BIBU 52/test substance to human thrombocytes: […] Case 5/1093-FL), which replaces the ^125 I fibrinogen ligand known from the literature and various concentrations of the substance to be tested. The free and bound ligand is separated by centrifuging and quantified by scintillation counting. The inhibition of ^3 H-BIBU 52 binding by the test substance is determined from the measurements obtained. […] 100 μl thereof are measured in order to determine the free ligand. […]
measurement name: pIC50
Just the number, please; pIC50 means minus log10 of the concentration in mol/L.

- compound: "N=C(NC(=O)OCc1ccccc1)c1ccc(N2CCN(C(=O)N[C@H]3CC[C@H](C(=O)O)CC3)CC2)cc1"
  target or test system: "human thrombocytes"
  pIC50: 6.64
- compound: "N=C(N)c1ccc(C2CCN(C(=O)N[C@H]3CC[C@H](C(=O)O)CC3)CC2)cc1 [3(2)]"
  target or test system: "human thrombocytes"
  pIC50: 7.85
- compound: "CCOC(=O)[C@H]1CC[C@H](NC(=O)N2CCN(c3ccc(C(=N)N)cc3)CC2)CC1"
  target or test system: "human thrombocytes"
  pIC50: 6.27
- compound: "NCc1ccc(N2CCN(C(=O)N[C@H]3CC[C@H](C(=O)O)CC3)CC2)cc1"
  target or test system: "human thrombocytes"
  pIC50: 6.89
- compound: "N=C(N)c1ccc(N2CCC(C(=O)N3CCC(CC(=O)O)CC3)CC2)cc1"
  target or test system: "human thrombocytes"
  pIC50: 7.11
- compound: "COC(=O)[C@H]1CC[C@H](NC(=O)C2CCN(c3ccc(C(=N)N)cc3)CC2)CC1.Cl"
  target or test system: "human thrombocytes"
  pIC50: 5.36

Bench note: what pIC50 did "N=C(N)c1ccc(N2CCC(C(=O)N[C@H]3CC[C@H](C(=O)O)CC3)CC2)cc1" show?
8.24

// pIC50 lookup, key: "NCc1ccc(C2CCN(C(=O)N[C@H]3CC[C@H](C(=O)O)CC3)CC2)cc1"
6.64

###

Test system: platelet aggregation
experimental details: Inhibition of platelet aggregation (collagen-induced, Born and Cross, platelet-rich plasma of healthy volunteers)
Type: cell-based
test conditions: human platelet-rich plasma, 10 minutes preincubation at 37° C
measurement name: EC50
The number alone won't do; follow it with the unit.

- molecule: "N=C(N)c1ccc(C2CCN(C(=O)N[C@H]3CC[C@H](C(=O)O)CC3)CC2)cc1 [2(3)]"
  target or test system: "platelet aggregation"
  EC50: "30 nM"

Now look at this entry.
Which measured EC50 value corresponds to N=C(N)c1ccc(C2CCN(C(=O)N[C@H]3CC[C@H](C(=O)O)CC3)CC2)cc1 [3(2)] ?
100 nM

###

target or test system: human thrombocytes
experimental details: Competitive binding of ^3 H-BIBU 52/test substance to human thrombocytes
test conditions: human thrombocytes in plasma; ^3 H-BIBU 52 5 nM; ambient temperature, 20 minutes
Procedure: 1. Competitive binding of ^3 H-BIBU 52/test substance to human thrombocytes: […] Case 5/1093-FL), which replaces the ^125 I fibrinogen ligand known from the literature and various concentrations of the substance to be tested. The free and bound ligand is separated by centrifuging and quantified by scintillation counting. The inhibition of ^3 H-BIBU 52 binding by the test substance is determined from the measurements obtained. […] 100 μl thereof are measured in order to determine the free ligand. […]
Reported log10 of IC50 values for a set of compounds
The common logarithm of IC50 in nM is what is listed.

Record excerpt, results attached:
- structure string: "N=C(N)c1ccc(N2CCC(C(=O)N[C@H]3CC[C@H](C(=O)O)CC3)CC2)nc1"
  target or test system: "human thrombocytes"
  log10 of IC50: 1.67
- structure string: "N=C(N)c1ccc(N2CCC(CC(=O)NCCC(=O)O)CC2)cc1"
  target or test system: "human thrombocytes"
  log10 of IC50: 2.26

Request - read-out log10 of IC50 | tested on human thrombocytes | compound "COC(=O)[C@H]1CC[C@H](NC(=O)N2CCC(c3ccc(C(=N)N)cc3)CC2)CC1"
3.08

Kindly state the measured log10 of IC50 obtained for "Cl.Cl.N=C(N)c1ccc(N2CCN(C(=O)N[C@H]3CC[C@H](C(=O)O)CC3)CC2)nc1" with human thrombocytes.
1.46

# value lookup — system human thrombocytes, readout log10 of IC50, item "COC(=O)[C@H]1CC[C@H](N(C)C(=O)N2CCN(c3ccc(C(=N)N)cn3)CC2)CC1"
4.23

I'm curious: which log10 of IC50 was measured for "COC(=O)[C@H]1CC[C@H](N(C)C(=O)N2CCN(c3ccc(C(=N)N)cc3)CC2)CC1" tested on human thrombocytes?
2.94

Which log10 of IC50 is reported with human thrombocytes for this entry: "COC(=O)CC1CCN(C(=O)N2CCN(c3ccc(C(=N)N)cc3)CC2)CC1" ?
4.48

Query for human thrombocytes: what log10 of IC50 does the record show for "N=C(N)c1ccc(N2CCN(C(=O)N(Cc3ccccc3)[C@H]3CC[C@H](C(=O)O)CC3)CC2)cc1" ?
0.18

Record lookup: for human thrombocytes, what log10 of IC50 belongs to "N=C(N)c1ccc(N2CCC(C(=O)N3CCC(CC(=O)O)CC3)CC2)nc1" ?
2.00

Data provenance: patent US5442064A
